All values here come from ChEMBL document CHEMBL1149140.

# measured-on: C-C chemokine receptor type 5 (Homo sapiens, UniProt P51681)
# Sequence (P51681 whole entry): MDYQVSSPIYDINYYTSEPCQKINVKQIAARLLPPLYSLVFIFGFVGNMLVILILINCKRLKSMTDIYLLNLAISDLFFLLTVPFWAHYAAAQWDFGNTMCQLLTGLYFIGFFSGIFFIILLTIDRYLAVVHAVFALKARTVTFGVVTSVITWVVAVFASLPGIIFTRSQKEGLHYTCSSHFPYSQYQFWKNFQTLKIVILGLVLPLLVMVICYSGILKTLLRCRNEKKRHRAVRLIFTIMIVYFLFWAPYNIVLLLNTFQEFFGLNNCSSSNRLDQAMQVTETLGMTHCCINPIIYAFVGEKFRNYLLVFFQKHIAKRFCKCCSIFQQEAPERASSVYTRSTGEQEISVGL
# measurement-notes: Antagonistic activity against human C-C chemokine receptor type 5.
# Assay type: functional
pIC50: −log10 of the molar value.
reported-property: pIC50

                     structure_smiles_string                               measured_on  relational_operator  test_result
 0  Cc1cccc(C)c1C(=O)N1CCC(C)(N2CCC(Nc3ccccc3)CC2)CC1  C-C chemokine receptor type 5 (Homo sapiens, UniProt P51681)                    =         7.00
 1  COc1cc(CN(c2ccccc2)C2CCN(C3(C)CCN(C(=O)c4c(C)cc[n+]([O-])c4C)CC3)CC2)cc(OC)c1OC  C-C chemokine receptor type 5 (Homo sapiens, UniProt P51681)                    <         6.00
 2  Cc1cccc(C)c1C(=O)N1CCC(C)(N2CCC(Nc3ccc(-c4ccccc4)cc3)CC2)CC1  C-C chemokine receptor type 5 (Homo sapiens, UniProt P51681)                    =         6.34
 3  Cc1cc[n+]([O-])c(C)c1C(=O)N1CCC(N2CCC(N(c3ccccc3)c3ccccc3)CC2)CC1  C-C chemokine receptor type 5 (Homo sapiens, UniProt P51681)                    =         8.05
 4  COc1cccc(OC)c1C(=O)N1CCC(C)(N2CCC(N(c3ccccc3)c3ccccc3)CC2)CC1  C-C chemokine receptor type 5 (Homo sapiens, UniProt P51681)                    =         7.38
 5  Cc1ccccc1C(=O)N1CCC(C)(N2CCC(N(c3ccccc3)c3ccccc3)CC2)CC1  C-C chemokine receptor type 5 (Homo sapiens, UniProt P51681)                    =         8.11
 6  CN(C)C(=O)c1ccccc1C(=O)N1CCC(C)(N2CCC(N(c3ccccc3)c3ccccc3)CC2)CC1  C-C chemokine receptor type 5 (Homo sapiens, UniProt P51681)                    <         7.00
 7  CC1(N2CCC(N(c3ccccc3)c3ccccc3)CC2)CCN(C(=O)c2c[nH]c3ccccc23)CC1  C-C chemokine receptor type 5 (Homo sapiens, UniProt P51681)                    =         7.32
 8  Cc1cc[n+]([O-])c(C)c1C(=O)N1CCC(C)(N2CCC(N(Cc3ccccc3C#N)c3ccccc3)CC2)CC1  C-C chemokine receptor type 5 (Homo sapiens, UniProt P51681)                    =         7.10
 9  CC1(N2CCC(N(c3ccccc3)c3ccccc3)CC2)CCN(C(=O)C2CCCCC2)CC1  C-C chemokine receptor type 5 (Homo sapiens, UniProt P51681)                    =         6.39
10  Cc1cccc(C)c1C(=O)N1CCC(C)(N2CCC(NCc3ccccc3)CC2)CC1  C-C chemokine receptor type 5 (Homo sapiens, UniProt P51681)                    <         6.00
11  Cc1cccc(C)c1C(=O)N1CCC(C)(N2CCC(Nc3cccc4ccn(C)c34)CC2)CC1  C-C chemokine receptor type 5 (Homo sapiens, UniProt P51681)                    =         6.99
12  Cc1cccc(C)c1C(=O)N1CCC(C)(N2CCC(N(Cc3ccccc3)c3ccc(Br)cc3)CC2)CC1  C-C chemokine receptor type 5 (Homo sapiens, UniProt P51681)                    =         8.64
13  Cc1cccc(C)c1C(=O)N1CCC(C)(N2CCC(Nc3ccc(C(F)(F)F)cc3)CC2)CC1  C-C chemokine receptor type 5 (Homo sapiens, UniProt P51681)                    =         9.10
14  Cc1cc(C)c(S(=O)(=O)N2CCC(C)(N3CCC(N(c4ccccc4)c4ccccc4)CC3)CC2)c(C)c1  C-C chemokine receptor type 5 (Homo sapiens, UniProt P51681)                    =         7.39
